The measurements presented in this section are drawn from PubChem BioAssay.

measurement_protocol: PSAC antagonists in infected red cells, primary screen, cell-based, P. falciparum Indochina, OD700, 1 h (AID 1154)
setup_conditions: P. falciparum Indochina infected RBC osmotic lysis, higher = more signal, called active from +8 up or from −8 down
Parameter threshold = 1. Response is y when z-score meets or exceeds it, else n.

compound	label
COC(=O)c1c(CC[C@@H](CO)NC(=O)N[C@H](Cn2cc(-c3ccccc3C)nn2)C(C)C)oc(C(C)=O)c1C(=O)OC	n
COCCOC(=O)N1C(=O)[C@@]2(c3cc(C#CC4=CCCCC4)ccc31)[C@H](c1ccc(O)cc1)N1[C@H](c3ccccc3)[C@H](c3ccccc3)OC(=O)[C@H]1[C@@H]2C(=O)Nc1nc2ccccc2s1	y
COc1cc(CO)cc(I)c1O[C@H]1C=C(C(=O)NCCO)C[C@@H](N(CC2CCCCC2)C(=O)c2ccc(C(F)(F)F)cc2)[C@@H]1O	y
COCCOC(=O)N1C(=O)[C@@]2(c3ccccc31)[C@H](C(=O)N1CCN(c3ncccn3)CC1)[C@H]1C(=O)O[C@H](c3ccccc3)[C@H](c3ccccc3)N1[C@@H]2c1ccc(OCCO)cc1	y
C[C@@H](OCc1ccccc1)C1NC(=O)[C@@]23C(=O)N[C@@H](Cc4ccccc4)C2[C@H](C)[C@@]2(C)O[C@H]2C3/C=C/C/C=C\CNC(=O)CNC1=O (stereo partly specified)	y
C=CC[C@@H](OC(=O)Nc1ccc(OC)cc1)c1ccc(OCCO)cc1	y

----------
Tested on: Wnt5a (protein binding on small-molecule microarray)
measurement_protocol: Wnt5a binders on small-molecule microarray, primary screen, biophysical, 635/667 nm fluorescence (AID 1142);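 further: fluorescence read at 667 nm with signal to noise per printed feature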
setup_conditions: 635 nm fluorescence, higher = more signal
Quick reference for composite z-score among some compounds

compound	composite z-score
CCOC(=O)C[C@H]1[C@H](OC(=O)Cc2ccc3c(c2)OCO3)[C@@H](NC(=O)C2CCCCC2)c2cc(OCCCO)ccc2N1C(=O)c1ccc2ccccc2n1	0.305
CC(=O)NCCCC[C@@H]1NC(=O)[C@@H]2C[C@H](C(=O)O)[C@H](c3ccc(O)cc3)N2C1=O	-0.734
CC(C)OC(=O)CC(=O)CC(O)c1cccc(C#N)c1 (configuration not stated)	0.167
COc1cc(CO)cc(I)c1O[C@H]1C=C(C(=O)NCCO)C[C@@H](NCc2ccccc2F)[C@@H]1O	-0.145
Cc1c(NC(=O)/C(C#N)=C/C=C/c2ccccc2[N+](=O)[O-])c(=O)n(-c2ccccc2)n1C	-0.145
COCCOC(=O)N1C(=O)[C@@]2(c3cc(C#CCC(C(=O)OC)C(=O)OC)ccc31)[C@H](c1ccc(OCCO)cc1)N1[C@H](c3ccccc3)[C@H](c3ccccc3)OC(=O)[C@H]1[C@@H]2C(=O)N1CCN(c2ncccn2)CC1	0.672
O=C(CCCCCCC(=O)Nc1ccccc1)N/N=C/c1ccccc1	-0.343

----------
measurement_protocol: cell viability in Huh7 cells, primary screen, cytotoxicity control for HCV replication inhibitor project, CellTiter-Glo luminescence, basal, 48 h (AID 1143);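 further: Huh7 hepatoma cells carrying a hepatitis C replication reporter with no stimulus; test concentration not given here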
setup_conditions: Huh7 HCV replicon, higher = more signal, called active from +8 up or from −8 down
experimental_readout: z-score

compound	experimental_readout	experimental_result
CN(C)CCCNC(=O)[C@@]1(C)c2ccccc2C(=O)N(Cc2cc(C(F)(F)F)cc(C(F)(F)F)c2)[C@H]1c1ccc(CO)cc1	z-score	-4.27
COc1cc2c(cc1O)C(C)N(Cc1cc3c(cc1Br)OCO3)CC2 (stereo not drawn)	z-score	-3.33
C[C@]12C(=O)N(CCCCCCO)[C@@H]3C(=O)N(c4ccc(Cl)cc4)CC=CC31O[C@@H]1/C=C\CCCOC(=O)C12 (stereo partly drawn)	z-score	-0.0337
COC(=O)[C@@]1(Cc2ccccc2)[C@H]2c3cc(C(=O)N4CCCC4)n(Cc4cc(F)cc5c4OCOC5)c3C[C@H]2CN1C(=O)c1ccccc1	z-score	0.147
NC(=O)NCC#Cc1ccc2c(c1)[C@]1(C(=O)N2)[C@H](C(=O)O)[C@H]2C(=O)O[C@H](c3ccccc3)[C@H](c3ccccc3)N2[C@@H]1c1ccccc1OCCO	z-score	-1.95
COC(=O)[C@]1(CCS(=O)(=O)c2ccccc2)N=C(c2ccc(OCCCO)cc2)O[C@@H]1c1ccccc1CN=[N+]=[N-]	z-score	-4.23
COc1ccc(C(O)C2C=CC3C(=O)N(C)C(=O)C3N2N2CCCCC2)cc1 (stereo not drawn)	z-score	0.758
O=C1c2ccccc2[C@@]2(Cc3ccccc3N(C3CC3)C2=O)[C@H](c2ccc(CO)cc2)N1C1CCCCC1	z-score	0.0786

----------
measurement_protocol: A549 cell viability effects, profiling panel, calcein-AM fluorescence, 48 h, basal (AID 1162); further: test concentration not given here
setup_conditions: higher = more signal
Output Yes for z-score not less than 0.1; output No otherwise.

molecule	label
CCCC[C@@H]1C[C@H]1[C@@H](NC(=O)c1ccccc1)c1ccc(Cl)cc1	No
CCOc1cc(C(O)C2C=CC3C(=O)N(C)C(=O)C3N2N2CCCCC2)ccc1O (stereo not drawn)	Yes
C[n+]1ccc(CCCO)cc1	No
CCOC(=O)C1=CC[C@@H](c2ccc([N+](=O)[O-])cc2)N(S(=O)(=O)c2ccc(C)cc2)[C@H]1c1ccccc1	No
O=C1OCCC=C[C@H]2OC34C=CCN(c5ccc(Cl)cc5)C(=O)[C@H]3N(CCCCCO)C(=O)[C@@H]4C12 (stereo partly drawn)	Yes
C=C(CCCC)/C(=C/C[C@@H](OC(C)=O)c1ccc(CO)o1)c1cc(C(=O)OC)ccc1OC	Yes
CO[C@H]1O[C@H](CO)[C@@H](OC(=O)Nc2ccccc2-c2ccccc2)[C@H](OC(=O)Nc2ccc3c(c2)OCO3)[C@@H]1OC(=O)Nc1ccc2c(c1)OCO2	Yes
COCCCNC(=O)[C@@]1(Sc2ccc(C)cc2)CC(=O)N(C2Cc3ccccc3C2)[C@@H]1c1ccc(CO)cc1I	No

----------
compounds and their reported z-score
measurement_protocol: CREB reporter modulators without forskolin, primary screen, cell-based, PC12, CRE-LacZ reporter, unstimulated (AID 1145)
setup_conditions: no forskolin, luminescence, 4.5 h, higher = more signal, called active from +8 up or from −8 down
experimental_readout: z-score

compound	experimental_result
C[C@]1(C(=O)O)c2ccccc2C(=O)N(Cc2ccccc2)[C@H]1c1ccc(CO)cc1	0.001
NC(=O)N1C(=O)C2C(C1=O)C1C=C(CCCO)C2C(c2cccs2)N1Cc1cc2c(cc1Br)OCO2 (configuration not stated)	0.424
COC(=O)C(CC#Cc1ccc2c(c1)[C@]1(C(=O)N2)[C@H](C(=O)O)[C@H]2C(=O)O[C@H](c3ccccc3)[C@H](c3ccccc3)N2[C@@H]1c1ccccc1OCCO)C(=O)OC	0.899
[N-]=[N+]=NCc1ccccc1C[C@]1(C(=O)NCC(O)CO)N=C(c2ccc(OCCCO)cc2)O[C@H]1c1ccccc1CN=[N+]=[N-] (some centres not stated)	0.447
CCOc1cc(C(O)C2C=CC3C(=O)N(C4CCCCC4)C(=O)C3N2Nc2ccc(OC)cc2)ccc1O (configuration not stated)	0.276
CC(C)C(=C=CC[C@H](O)c1ccc(OCCO)cc1)C[C@H](O)c1cc(Cl)cc(Cl)c1O	7.76
CC(C)N1CC=CC23O[C@@H]4C=CCOC(=O)[C@@H]4[C@H]2C(=O)N(C(C)CO)[C@@H]3C1=O (some centres not stated)	-0.619

----------
Test system: Lefty1
measurement_protocol: Lefty1 binders on small-molecule microarrays, primary screen, biochemical, small-molecule microarray, 635/667 nm fluorescence (AID 1139)
setup_conditions: small-molecule microarray binding, fluorescence 635/667; higher = more signal
Binary classification by composite z-score, with -0.1 as an inclusive lower bound for criterion met; all other cases are criterion not met.

molecule	label
COCCCNC(=O)[C@]1(CCC(=O)OC(C)(C)C)N=C(c2ccc(OCCCO)cc2)O[C@@H]1c1ccccc1	criterion not met
Cc1ccc(C(C)CC(O)C2C=CC3C(=O)N(c4ccccc4)C(=O)C3N2Nc2ccc(C(C)C)cc2)o1 (stereo not given)	criterion not met
O=c1cccc(-c2cccc(Cl)c2)o1	criterion met
CN1C(=O)C2C(C1=O)C1C=C(c3ccc(CO)cc3)C2C(c2cccs2)N1Cc1cccc(OC(F)(F)F)c1 (stereo not given)	criterion met
O=C1O[C@@H](c2ccccc2)[C@@H](c2ccccc2)N2[C@@H](c3ccccc3OCCO)[C@]3(C(=O)Nc4ccccc43)[C@@H](C(=O)NC[C@H](O)c3ccccc3)[C@H]12	criterion not met
[N-]=[N+]=Nc1ccccc1C[C@]1(C(=O)NCc2ccccc2)N=C(c2ccc(OCCCO)cc2)O[C@H]1c1ccccc1	criterion met
Cc1c(NC(=O)/C(C#N)=C/C=C/c2ccccc2[N+](=O)[O-])c(=O)n(-c2ccccc2)n1C	criterion met
COc1c(C)cc(-c2cc3c(c(-c4ccccc4)n2)[Si](C(C)C)(C(C)C)OC3)cc1C	criterion not met
CC(C)(C)OC(=O)CC[C@]1(C(=O)NCCN2CCOCC2)N=C(c2ccc(OCCCO)cc2)O[C@H]1c1ccccc1N=[N+]=[N-]	criterion not met
CCCNC(=O)[C@@]1(c2ccc([N+](=O)[O-])cc2)CC(=O)N(C2CCCCC2)[C@@H]1c1ccc(CO)cc1I	criterion met
COc1ccccc1CN1C(=O)c2ccccc2[C@@H](C(=O)NC(C)C)[C@@H]1c1ccc(CO)cc1	criterion met
CCOC(=O)C[C@H]1[C@H](OC(=O)c2ccc(-c3ccccc3)cc2)[C@@H](NC(=O)c2ccc3ccccc3c2)c2cc(OCCCO)ccc2N1C(=O)c1ccc2ccccc2n1	criterion met
CCCC[C@@H]1C[C@H]1[C@@H](NC(=O)c1cccnc1)c1ccc(-c2ccccc2)cc1	criterion not met
COCCOC(=O)N1C(=O)[C@@]2(c3ccccc31)[C@H](C(=O)N1CCN(c3ncccn3)CC1)[C@H]1C(=O)O[C@H](c3ccccc3)[C@H](c3ccccc3)N1[C@@H]2c1ccc(OCCO)cc1	criterion met
CC(C)N1CC=CC23O[C@@H]4C=CCCOC(=O)C4[C@H]2C(=O)N(CCO)[C@@H]3C1=O (stereo not given in full)	criterion met
